What GI50 was measured for each of the following?
- Tested System: BAF3 FL KIT EX11DEL (Homo sapiens, UniProt P10721, cells depend on it, form not given)
- Construct: "BAF3 FL KIT EX11DEL"
- Sequence (P10721 with tags, fused parts or gaps DEL557-558): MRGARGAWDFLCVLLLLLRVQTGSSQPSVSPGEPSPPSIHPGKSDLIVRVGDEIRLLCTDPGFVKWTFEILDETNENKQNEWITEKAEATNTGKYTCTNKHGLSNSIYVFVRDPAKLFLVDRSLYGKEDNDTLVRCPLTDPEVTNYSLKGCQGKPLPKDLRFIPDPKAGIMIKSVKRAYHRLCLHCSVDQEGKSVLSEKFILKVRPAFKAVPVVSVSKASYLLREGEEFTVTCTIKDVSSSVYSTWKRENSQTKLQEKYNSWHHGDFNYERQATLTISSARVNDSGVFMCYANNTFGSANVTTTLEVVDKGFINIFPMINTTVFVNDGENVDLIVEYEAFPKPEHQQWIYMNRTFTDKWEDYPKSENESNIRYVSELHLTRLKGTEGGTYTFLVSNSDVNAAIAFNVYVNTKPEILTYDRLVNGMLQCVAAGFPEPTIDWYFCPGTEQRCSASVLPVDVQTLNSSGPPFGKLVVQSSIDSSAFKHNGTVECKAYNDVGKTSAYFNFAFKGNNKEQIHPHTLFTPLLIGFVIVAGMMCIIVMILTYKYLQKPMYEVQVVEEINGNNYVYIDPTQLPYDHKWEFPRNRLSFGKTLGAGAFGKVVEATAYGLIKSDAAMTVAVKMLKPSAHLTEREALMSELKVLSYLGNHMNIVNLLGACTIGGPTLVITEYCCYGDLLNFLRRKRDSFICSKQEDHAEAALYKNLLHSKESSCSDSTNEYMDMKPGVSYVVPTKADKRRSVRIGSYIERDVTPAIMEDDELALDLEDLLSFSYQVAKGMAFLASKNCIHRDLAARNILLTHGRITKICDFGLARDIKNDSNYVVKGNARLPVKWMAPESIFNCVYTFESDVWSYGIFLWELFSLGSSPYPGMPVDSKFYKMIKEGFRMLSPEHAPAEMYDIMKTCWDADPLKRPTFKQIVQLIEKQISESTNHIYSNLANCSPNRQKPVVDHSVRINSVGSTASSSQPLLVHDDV
- Method Description: c-Kit assay: Ba/F3 KIT mutant viability (Cell Titer-Glo, 72 hours)
- Format: cell-based
- Recorded Conditions: viability after 72 hours

Param readout= GI50; system= BAF3 FL KIT EX11DEL (Homo sapiens, UniProt P10721, cells depend on it, form not given); entry= Cc1ccc(C(=O)Nc2cc(C(F)(F)F)ccn2)cc1C#Cc1ccc2c(c1)ncn2-c1cnn(C2CCOCC2)c1 [Compound I-33] ; returns value.
< 0.01 µM

Param readout= GI50; system= BAF3 FL KIT EX11DEL (Homo sapiens, UniProt P10721, cells depend on it, form not given); entry= Cc1ccc(C(=O)Nc2cc(C(F)(F)F)ccn2)cc1C#Cc1ccc2c(c1)ncn2C1CC1 [Compound I-13] ; returns value.
0.01 to 0.05 µM

Param readout= GI50; system= BAF3 FL KIT EX11DEL (Homo sapiens, UniProt P10721, cells depend on it, form not given); entry= Cc1ccc(C(=O)Nc2cc(C(F)(F)F)ccn2)cc1C#Cc1ccc2c(c1)ncn2-c1cnn(C2CCN(C=O)CC2)c1 [Compound I-25] ; returns value.
< 0.01 µM

Param readout= GI50; system= BAF3 FL KIT EX11DEL (Homo sapiens, UniProt P10721, cells depend on it, form not given); entry= Cn1cc(-n2cnc3cc(C#Cc4cccc(NC(=O)c5cc(C(F)(F)F)ccn5)c4)ccc32)cn1 [Compound I-49] ; returns value.
< 0.01 µM
